Source: PubChem BioAssay (NCI)

Please respond with reported TGI for every item in the list.
# System: TK-10 renal
# test: NCI tumour cell line growth inhibition, 48 h

Worked cases, TGI given:
- compound: "NC(N)=NS(=O)(=O)c1ccc(NC(=O)c2cccc3c(N)c4ccccc4nc23)cc1"
  TGI: "> 100 µM"
- compound: "CCOc1cccc(-c2cc(=O)c3cc4c(cc3[nH]2)OCO4)c1"
  TGI: "8.45 µM"
- compound: "CCOC(=O)C1SC(=Nc2ccc(Cl)cc2Cl)N=C1C (stereo unspecified)"
  TGI: "> 100 µM"
- compound: "CCCN(CCC)c1ccc(C=O)c(C)c1"
  TGI: "> 100 µM"
- compound: "C=C(Cl)C(C)(Cl)CCC(Cl)C(C)C (stereo unspecified)"
  TGI: "> 100 µM"
- compound: "COc1ccc(N=Nc2c(N)nn(C)c2N)cc1"
  TGI: "> 100 µM"

Provide TGI values for the following items, in order.
1. Oc1ccccc1/C=N\NC(=S)N/N=C/c1ccccc1O
2. COc1cc(C2CC(=O)Nc3c2c(C)nn3-c2nc3ccccc3[nH]2)cc(OC)c1O (stereo unspecified)
3. CCOC(=O)c1sc2nc1CSc1sc(=S)sc1SCc1nc(sc1C(=O)OCC)-c1nc(c(C(=O)OCC)s1)CSc1sc(=S)sc1SCc1nc-2sc1C(=O)OCC
4. O=C1CC(CC(OCc2ccccc2)C(OCc2ccccc2)C(COCc2ccccc2)OCc2ccccc2)CC(=O)N1 (stereo unspecified)

1: 53.3 µM; 2: 7.67 µM; 3: > 10 µM; 4: > 100 µM

Provide TGI values for the following items, in order.
1. CN1CC2=C(NC(=S)NC2c2ccccc2Cl)/C(=C/c2ccccc2Cl)C1 (stereo unspecified)
2. COc1ccc(OC)c(/C=C/c2ccnc3ccccc23)c1
3. CN1CCN(Cc2nc3c(s2)CCc2sccc2-3)CC1
4. C=C1C(=O)O[C@H]2[C@H]1CC/C(CNC(=O)/C=C/c1ccccc1F)=C\CC[C@@]1(C)O[C@@H]21
5. COc1cc(/C=C2\N=C(c3ccccc3)N(c3nc4ccc(Sc5ccccc5)cc4[nH]3)C2=O)cc(OC)c1OC
6. CCCCCCCCCCOC(=O)NCCC

> 100 µM
16 µM
> 100 µM
3.25 µM
57.4 µM
> 100 µM

Provide TGI values for the following items, in order.
1. Cc1ccccc1Nc1nc(NNC(=O)Cc2ccccc2)nc(NNC(=O)c2ccncc2)n1
2. C#CCOCn1cc(C)c(=O)[nH]c1=O
3. CCCC[C@H]1C(=O)O[C@H](C)[C@H](NC(=O)c2cccc(NC=O)c2OC)C(=O)O[C@@H](C)[C@@H]1OC(=O)CC(C)C (tested in a mixture with another compound)
4. Cn1cc(C2=C(c3cn(CCCCCO)c4ccccc34)C(=O)NC2=O)c2ccccc21
5. Cn1c2cn[nH]c(=O)c2c2ccc3ccccc3c21

["> 10 µM", "> 100 µM", "30.7 µM", "16 µM", "> 100 µM"]
